Where do these numbers come from? They come from patent US11306101B2.

DC50: recorded values
- Test system: CK1α (Homo sapiens, UniProt P48729+Q96SW2)
- Construct: expressed in transfected cells
- Sequence (P48729 whole entry): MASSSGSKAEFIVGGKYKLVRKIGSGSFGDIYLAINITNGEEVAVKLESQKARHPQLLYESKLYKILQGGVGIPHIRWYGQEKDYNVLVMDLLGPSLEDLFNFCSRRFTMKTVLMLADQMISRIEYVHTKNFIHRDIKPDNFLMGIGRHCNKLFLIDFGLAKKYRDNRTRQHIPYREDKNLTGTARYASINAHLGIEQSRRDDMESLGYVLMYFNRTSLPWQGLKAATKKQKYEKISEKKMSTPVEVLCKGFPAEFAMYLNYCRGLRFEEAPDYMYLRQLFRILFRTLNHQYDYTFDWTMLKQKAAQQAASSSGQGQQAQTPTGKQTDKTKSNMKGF
- Sequence (Q96SW2 whole entry): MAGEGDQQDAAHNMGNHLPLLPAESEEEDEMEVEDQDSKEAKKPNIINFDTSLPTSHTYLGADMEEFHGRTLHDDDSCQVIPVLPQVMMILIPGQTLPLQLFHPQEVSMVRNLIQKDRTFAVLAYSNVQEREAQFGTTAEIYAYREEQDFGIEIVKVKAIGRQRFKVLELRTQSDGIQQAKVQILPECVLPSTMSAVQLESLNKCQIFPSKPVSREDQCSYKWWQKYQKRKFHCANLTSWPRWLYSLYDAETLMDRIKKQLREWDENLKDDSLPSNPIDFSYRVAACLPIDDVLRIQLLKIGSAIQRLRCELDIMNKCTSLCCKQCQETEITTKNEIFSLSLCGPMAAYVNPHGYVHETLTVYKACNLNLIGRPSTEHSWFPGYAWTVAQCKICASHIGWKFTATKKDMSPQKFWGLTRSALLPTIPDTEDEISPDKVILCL
- Sequence (Q16531 whole entry partner): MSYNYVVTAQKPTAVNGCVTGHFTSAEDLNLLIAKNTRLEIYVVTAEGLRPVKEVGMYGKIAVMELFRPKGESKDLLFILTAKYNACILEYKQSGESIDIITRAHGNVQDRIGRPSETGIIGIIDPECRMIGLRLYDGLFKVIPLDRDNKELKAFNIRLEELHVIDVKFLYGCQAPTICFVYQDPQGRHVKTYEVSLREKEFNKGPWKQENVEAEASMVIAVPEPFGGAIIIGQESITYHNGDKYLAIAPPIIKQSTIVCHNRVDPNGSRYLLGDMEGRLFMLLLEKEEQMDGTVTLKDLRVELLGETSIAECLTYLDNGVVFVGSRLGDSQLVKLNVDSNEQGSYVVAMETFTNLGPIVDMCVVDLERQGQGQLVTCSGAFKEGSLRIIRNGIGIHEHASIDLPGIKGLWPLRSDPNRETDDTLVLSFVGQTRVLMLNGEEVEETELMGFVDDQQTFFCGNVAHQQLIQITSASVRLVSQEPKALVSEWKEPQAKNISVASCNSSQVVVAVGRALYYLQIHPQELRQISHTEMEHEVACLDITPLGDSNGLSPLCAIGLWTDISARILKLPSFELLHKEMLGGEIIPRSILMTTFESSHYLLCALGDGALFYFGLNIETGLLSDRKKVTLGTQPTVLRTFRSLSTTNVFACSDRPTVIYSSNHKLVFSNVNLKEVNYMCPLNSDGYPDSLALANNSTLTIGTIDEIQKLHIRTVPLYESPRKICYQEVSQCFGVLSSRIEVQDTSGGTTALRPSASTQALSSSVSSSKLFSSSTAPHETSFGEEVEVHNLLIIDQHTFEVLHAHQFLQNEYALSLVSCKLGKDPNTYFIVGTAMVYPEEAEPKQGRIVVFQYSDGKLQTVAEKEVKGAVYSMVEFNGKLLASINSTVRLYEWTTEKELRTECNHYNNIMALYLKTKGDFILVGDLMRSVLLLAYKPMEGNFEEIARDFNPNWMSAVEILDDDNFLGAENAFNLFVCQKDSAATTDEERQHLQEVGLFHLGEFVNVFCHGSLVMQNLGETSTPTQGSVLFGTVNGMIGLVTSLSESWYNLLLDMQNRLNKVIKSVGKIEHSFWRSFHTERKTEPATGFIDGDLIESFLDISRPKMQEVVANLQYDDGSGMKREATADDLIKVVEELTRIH
- Procedure text: CK1α ePL degradation assay in MDS-L cells
- Format: cell-based
- Applied conditions: concentration giving 50% CK1α degradation vs DMSO control; MDS-L cells expressing ePL-tagged CK1α

Here's what some known entries look like.
Compound	DC50
O=C1CCC(N2Cc3cc(C(=O)N[C@H](C4CCC5(CCC5)CC4)C(F)(F)F)ccc3C2=O)C(=O)N1 (stereo partly shown) [Example 53]	< 0.1 µM
O=C1CCC(N2Cc3c(ccc(C(=O)N[C@H](c4ccc(F)c(F)c4)C(F)(F)F)c3F)C2=O)C(=O)N1 (stereo partly shown) [Example 113]	0.1 to 0.5 µM
CC1([C@@H](NC(=O)c2ccc3c(c2)CN(C2CCC(=O)NC2=O)C3=O)C(F)(F)F)CC1 (stereo partly shown) [Example 78]	< 0.1 µM

As a next step, examine the compound that follows.
# DC50 of O=C1CCC(N2Cc3c(ccc(C(=O)N[C@H](c4ccccc4OC4CC4)C(F)(F)F)c3F)C2=O)C(=O)N1 (stereo partly shown) [Example 157] = < 0.1 µM

----------
Parameter: DC50. Scope: all listed entries.
- Test system: CK1α (Homo sapiens, UniProt P48729+Q96SW2)
- Construct: expressed in transfected cells
- Procedure text: CK1α ePL degradation assay in MDS-L cells
- Assay type: cell-based
- Applied conditions: concentration giving 50% CK1α degradation vs DMSO control; MDS-L cells expressing ePL-tagged CK1α

Compound	DC50
O=C1CCC(N2Cc3c(ccc(C(=O)N[C@H](c4ccc(Cl)cc4Cl)C(F)(F)F)c3F)C2=O)C(=O)N1 (stereo partly shown)	100 to 500 nM

Kindly note the recorded DC50 for O=C1CCC(N2Cc3cc(C(=O)N[C@@H](CC(F)(F)F)c4ccc(F)cc4)ccc3C2=O)C(=O)N1 (stereo partly shown) , which is 100 to 500 nM

Summary for this compound, CC1([C@@H](NC(=O)c2ccc3c(c2)CN(C2CCC(=O)NC2=O)C3=O)C(F)(F)F)CCCC1 (stereo partly shown) : DC50 is < 100 nM

// DC50 value for O=C1CCC(N2Cc3c(ccc(C(=O)N[C@H](c4ccc(F)cn4)C(F)(F)F)c3F)C2=O)C(=O)N1 (stereo partly shown) : 100 to 500 nM

----------
- Test system: CK1α (Homo sapiens, UniProt P48729+Q96SW2)
- Construct: expressed in transfected cells
- Procedure text: CK1α ePL degradation assay in MDS-L cells
- Type: cell-based
- Applied conditions: concentration giving 50% CK1α degradation vs DMSO control; MDS-L cells expressing ePL-tagged CK1α
Reported endpoint: DC50

Worked cases, DC50 given:
Compound	Test system	DC50
CN1CCN(c2ccc([C@@H](NC(=O)c3ccc4c(c3)CN(C3CCC(=O)NC3=O)C4=O)C(F)(F)F)cc2)CC1 (some centres unmarked)	CK1α (Homo sapiens, UniProt P48729+Q96SW2)	< 100 nM
C[C@H](NC(=O)c1ccc2c(c1)CN(C1CCC(=O)NC1=O)C2=O)c1ccc(Cl)cc1 (some centres unmarked)	CK1α (Homo sapiens, UniProt P48729+Q96SW2)	< 100 nM
CC1(C)CCC([C@@H](NC(=O)c2ccc3c(c2)CN(C2CCC(=O)NC2=O)C3=O)C(F)(F)F)CC1 (some centres unmarked)	CK1α (Homo sapiens, UniProt P48729+Q96SW2)	100 to 500 nM
O=C1CCC(N2Cc3cc(C(=O)N[C@H](c4cccc(C(F)(F)F)c4)C(F)(F)F)c(F)cc3C2=O)C(=O)N1 (some centres unmarked)	CK1α (Homo sapiens, UniProt P48729+Q96SW2)	100 to 500 nM
O=C1CCC(N2Cc3c(ccc(C(=O)N[C@H](c4cccc(OC(F)(F)F)c4)C(F)(F)F)c3F)C2=O)C(=O)N1 (some centres unmarked)	CK1α (Homo sapiens, UniProt P48729+Q96SW2)	100 to 500 nM

// moving on: another record for DC50
Sure, the documented DC50 for O=C1CCC(N2Cc3c(ccc(C(=O)N[C@H](C4CCCC4)C(F)(F)F)c3F)C2=O)C(=O)N1 (some centres unmarked) is < 100 nM

----------
Below, each entry is listed alongside its reported DC50.
- Test system: CK1α (Homo sapiens, UniProt P48729+Q96SW2)
- Construct: expressed in transfected cells
- Procedure text: CK1α ePL degradation assay in MDS-L cells
- Type: cell-based
- Applied conditions: concentration giving 50% CK1α degradation vs DMSO control; MDS-L cells expressing ePL-tagged CK1α
- Source text: The following is an example of an assay that can be used to determine the CK1α degradation activity of Isoindolinone Carboxamide Compounds in a cell line, for example, the MDS-L cell line. […] CK1α levels in compound-treated wells were normalized to that of DMSO control and expressed as percent of control (PoC) (y). The lowest measured CK1α level normalized to DMSO control in response to compound treatment, termed Y value, was used to characterize the compound-mediated CK1α degradation efficiency.

Compound	DC50
O=C1CCC(N2Cc3c(ccc(C(=O)N[C@@H](CC(F)(F)F)c4ccc(Cl)cc4)c3F)C2=O)C(=O)N1 (stereo partly drawn) [Example 129]	500 to 1000 nM

// sample O=C1CCC(N2Cc3cc(C(=O)N[C@H](C4CCC5(CC4)CC5)C(F)(F)F)ccc3C2=O)C(=O)N1 (stereo partly drawn) [Example 166] , its DC50 was < 100 nM

Value of measured DC50 for the entry O=C1CCC(N2Cc3c(ccc(C(=O)N[C@H](c4cccc(Cl)c4)C(F)(F)F)c3F)C2=O)C(=O)N1 (stereo partly drawn) [Example 107] : 100 to 500 nM

compound O=C1CCC(N2Cc3cc(C(=O)N[C@H](c4ccc(Cl)cc4Cl)C(F)(F)F)ccc3C2=O)C(=O)N1 (stereo partly drawn) [Example 163] , DC50 observed: < 100 nM

Briefly, DC50 measured for CN(C)Cc1cccc([C@@H](NC(=O)c2ccc3c(c2)CN(C2CCC(=O)NC2=O)C3=O)C(F)(F)F)c1 (stereo partly drawn) [Example 150] : 100 to 500 nM

Just so you know, measured DC50 for CC[C@@H](NC(=O)c1ccc2c(c1)CN(C1CCC(=O)NC1=O)C2=O)c1ccccc1 (stereo partly drawn) [Example 118] came out at 100 to 500 nM

Data point: O=C1CCC(N2Cc3cc(C(=O)N[C@H](c4ccccc4OC4CC4)C(F)(F)F)ccc3C2=O)C(=O)N1 (stereo partly drawn) [Example 161] ; DC50 = < 100 nM

get_value(item= O=C1CCC(N2Cc3c(ccc(C(=O)N[C@H](c4ccc(F)cc4)C(F)(F)F)c3F)C2=O)C(=O)N1 (stereo partly drawn) [Example 96] , readout=DC50) returns < 100 nM

----------
- Test system: CK1α (Homo sapiens, UniProt P48729+Q96SW2)
- Construct: expressed in transfected cells
- Procedure text: CK1α ePL degradation assay in MDS-L cells
- Format: cell-based
- Applied conditions: concentration giving 50% CK1α degradation vs DMSO control; MDS-L cells expressing ePL-tagged CK1α
# Lookup of reported DC50 keyed by entry

DC50 measured on O=C1CCC(N2Cc3cc(C(=O)N[C@H](c4ncc(Cl)cc4F)C(F)(F)F)ccc3C2=O)C(=O)N1 (stereo partly shown) = < 100 nM

Memo: O=C1CCC(N2Cc3cc(C(=O)N[C@H](c4cccc(CN5CCOCC5)c4)C(F)(F)F)ccc3C2=O)C(=O)N1 (stereo partly shown) , reported DC50: < 100 nM

Measured DC50 of O=C1CCC(N2Cc3c(ccc(C(=O)N[C@@H](C(F)(F)F)C45CC(C4)C5)c3F)C2=O)C(=O)N1 (stereo partly shown) : < 100 nM

According to the records, this compound O=C1CCC(N2Cc3cc(C(=O)N[C@@H](CC(F)(F)F)c4cccc(F)c4)ccc3C2=O)C(=O)N1 (stereo partly shown) displays DC50 of 100 to 500 nM

get_value(item= C[C@@H](NC(=O)c1ccc2c(c1)CN(C1CCC(=O)NC1=O)C2=O)C1CCCC1 (stereo partly shown) , readout=DC50) returns 100 to 500 nM

O=C1CCC(N2Cc3cc(C(=O)NC(C4CCC5(CC4)CC(O)C5)C(F)(F)F)ccc3C2=O)C(=O)N1 (stereo not shown) [Example 176] yielded DC50 of 100 to 500 nM

The reported DC50 of the compound O=C1CCC(N2Cc3c(ccc(C(=O)N[C@H](c4ccc(F)cc4Cl)C(F)(F)F)c3F)C2=O)C(=O)N1 (stereo partly shown) was < 100 nM

----------
- Test system: CK1α (Homo sapiens, UniProt P48729+Q96SW2)
- Construct: expressed in transfected cells
- Procedure text: CK1α ePL degradation assay in MDS-L cells
- Format: cell-based
- Applied conditions: concentration giving 50% CK1α degradation vs DMSO control; MDS-L cells expressing ePL-tagged CK1α
- Excerpt: The following is an example of an assay that can be used to determine the CK1α degradation activity of Isoindolinone Carboxamide Compounds in a cell line, for example, the MDS-L cell line. […] CK1α levels in compound-treated wells were normalized to that of DMSO control and expressed as percent of control (PoC) (y). The lowest measured CK1α level normalized to DMSO control in response to compound treatment, termed Y value, was used to characterize the compound-mediated CK1α degradation efficiency.
Reported endpoint: DC50

Molecule	Readout value
O=C1CCC(N2Cc3cc(C(=O)N[C@H](c4cccc(Cl)c4)C(F)(F)F)ccc3C2=O)C(=O)N1 (stereo partly shown)	< 100 nM
C[C@H](NC(=O)c1ccc2c(c1)CN(C1CCC(=O)NC1=O)C2=O)c1cccnc1 (stereo partly shown)	100 to 500 nM
O=C1CCC(N2Cc3cc(C(=O)N[C@H](c4ncccc4C(F)(F)F)C(F)(F)F)ccc3C2=O)C(=O)N1 (stereo partly shown)	100 to 500 nM

Next molecule, DC50 to be filled in.
Lookup result for CN(C)Cc1ccc([C@@H](NC(=O)c2ccc3c(c2)CN(C2CCC(=O)NC2=O)C3=O)C(F)(F)F)cc1 (stereo partly shown) ; measured DC50: < 100 nM
